Data origin: patent US9725713

System: MDA-MB-231 cell surface (target molecule unidentified, whole cells) (Homo sapiens?)
Assay: flow
Conditions: n at 30 is P; no binding at 250 nM
Parameter Measured: Kd

[[record]]
construct_sequence = "TCCCGAGTGACGCAGCCCCCGGTGGGATTNATCGGTGGACACGGTGGCTGAC [T23-P30]"
tested_system = "MDA-MB-231 cell surface (target molecule unidentified, whole cells) (Homo sapiens?)"
measurement = "> 1000 nM"


====

Test system: MDA-MB-231 cell surface (target molecule unidentified, whole cells)
Test: flow
Details: n at 30 is P; apparent Kd on whole cells
pKd: −log10 of the molar value.
Parameter Measured: pKd

[[record]]
construct_sequence = "TCCCGAGTGACGCAGCCCCCGGCGGGATTNATCGGTGGACACGGTGGCTGAC [C23-P30]"
parameter_measured = "pKd"
measurement = 6.80

